Source of measurements: ChEMBL document CHEMBL2218924

assayed.target: Tyrosine-protein kinase Lyn (Homo sapiens) (UniProt P07948)
Sequence (P07948 2-512 limits assumed): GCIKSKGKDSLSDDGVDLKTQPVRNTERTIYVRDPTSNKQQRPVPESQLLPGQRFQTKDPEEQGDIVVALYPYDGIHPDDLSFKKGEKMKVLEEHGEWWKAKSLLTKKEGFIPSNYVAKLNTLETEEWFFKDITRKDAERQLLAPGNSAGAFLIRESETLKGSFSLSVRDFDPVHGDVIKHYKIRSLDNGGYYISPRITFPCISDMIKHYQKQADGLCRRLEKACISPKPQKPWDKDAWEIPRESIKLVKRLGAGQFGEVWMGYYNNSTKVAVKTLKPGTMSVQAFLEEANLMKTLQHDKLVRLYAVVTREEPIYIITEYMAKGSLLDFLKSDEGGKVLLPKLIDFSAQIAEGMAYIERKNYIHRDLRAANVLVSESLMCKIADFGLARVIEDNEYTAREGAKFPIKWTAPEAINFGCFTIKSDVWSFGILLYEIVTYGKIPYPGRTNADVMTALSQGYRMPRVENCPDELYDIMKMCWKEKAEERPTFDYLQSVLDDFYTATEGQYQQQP
condition.context: at 10 µM
Assignment: determine reported residual activity for the given compounds.
Quote the value and follow it with the unit of measurement.

Below are worked cases with known answers.
C[S+]([O-])c1ccc(-c2nc(-c3ccc(F)cc3)c(-c3ccncc3)[nH]2)cc1 (stereo not drawn) :: 13%
O=C1Nc2ccc3ncsc3c2/C1=C/c1c[nH]cn1 :: 6%
c1cc(-c2cnn3cc(-c4ccc(OCCN5CCCCC5)cc4)cnc23)ccn1 :: 2%

For the 4 compounds below, give their residual activity values.
1. O=C1NC(=O)c2c1c1c3ccccc3n3c1c1c2c2ccccc2n1C1CCC3O1
2. O=[N+]([O-])/C=C/c1ccc2c(c1)OCO2
3. COC(=O)[C@@]1(O)C[C@H]2O[C@]1(C)n1c3ccccc3c3c4c(c5c6ccccc6n2c5c31)C(=O)NC4
4. N/C(=N\[N+](=O)[O-])N/N=C\c1ccc(-c2cccc([N+](=O)[O-])c2)o1

["10%", "73%", "0%", "66%"]

Value lookup for residual activity; key = COc1cc2ncnc(Nc3ccc(OCc4ccccc4)cc3)c2cc1OC
9%
